# testedOn: MC-3 (Homo sapiens, UniProt P41968)
# Sequence (P41968 whole entry): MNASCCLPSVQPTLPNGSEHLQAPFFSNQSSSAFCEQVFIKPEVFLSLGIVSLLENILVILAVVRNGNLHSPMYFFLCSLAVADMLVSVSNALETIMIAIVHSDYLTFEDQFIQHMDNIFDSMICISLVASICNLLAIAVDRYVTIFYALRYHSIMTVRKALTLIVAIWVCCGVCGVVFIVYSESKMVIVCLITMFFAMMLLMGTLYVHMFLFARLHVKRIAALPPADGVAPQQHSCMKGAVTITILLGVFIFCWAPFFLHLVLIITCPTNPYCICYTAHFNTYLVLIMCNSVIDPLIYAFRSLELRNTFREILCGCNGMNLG
# assayText: cAMP assay for melanocortin receptors, HEK 293 cells expressing MC-3
# settings: concentration for 50% of the maximum increase by that ligand
recordedMetric: pEC50
The quantity pEC50 is defined as the negative base-10 logarithm of the molar concentration.

Before answering, review these 2 worked examples.
INSERT INTO assay_data (compound, reportedresult) VALUES
  ('CC(C)(C)c1ccc(-c2nc3cc(C(=O)N4CC=C(c5ccc(Cl)cc5)CC4)ccc3n2[C@@H](CCCNC(=N)N)C(N)=O)cc1 [Compound K]', 5.76),
  ('CC(C)(C)c1ccc(-c2nc3cc(C(=O)N(CCc4ccccc4)Cc4ccccc4)ccc3n2C(CCCNC(=N)N)C(N)=O)cc1 (stereo not drawn) [Compound A]', 5.12);

Consider the additional compound presented here.
## Task Answer with reported pEC50 of CCCCOc1ccc(-c2nc3cc(C(=O)NC(Cc4ccccc4)c4ccccc4)ccc3n2C(CCCNC(=N)N)C(N)=O)cc1 (stereo not drawn) [Compound B]
## Result 5.88
